assay: Microsomal stability; type: in vitro ADME, mouse; conditions: mouse, microsomes, pH 7.4
I'd be grateful if you could share measured half-life at 1 µM for these entries.
Numbers only here, please. The scale is min.

Exercise: Return half-life at 1 µM (reported value) for this compound: CC(c1ccccc1)C(CO)Nc1ncnc2[nH]ccc12 (centres unmarked) [AVI-3669]
Solution: 8.3

Exercise: Return half-life at 1 µM (reported value) for this compound: CC(C)(O)[C@H]1CCCN1c1ncnc2[nH]ccc12 [AVI-607]
Solution: 19

----------
target: SARS-CoV-2 NSP3 macrodomain (Mac1), P43 crystal form (Severe acute respiratory syndrome coronavirus 2); type: binding; settings: soak concentration 10 mM; DMSO background map
Reported property: PanDDA run, DMSO background map: 1-BDC
Respond using a number only.

Exercise: Return PanDDA run, DMSO background map: 1-BDC (reported value) for this compound: CC1(C)CCC(CO)N(c2ncnc3[nH]ccc23)C1 (stereo not shown)
Solution: 0.17

Exercise: Return PanDDA run, DMSO background map: 1-BDC (reported value) for this compound: OCC(O)C1CCCN1c1ncnc2[nH]ccc12 (stereo not shown)
Solution: 0.18

Exercise: Return PanDDA run, DMSO background map: 1-BDC (reported value) for this compound: OCC(Cc1cncs1)Nc1ncnc2[nH]ccc12 (stereo not shown)
Solution: 0.15

Exercise: Return PanDDA run, DMSO background map: 1-BDC (reported value) for this compound: OCC1C2CCC(C2)N1c1ncnc2[nH]ccc12 (stereo not shown)
Solution: 0.29

Exercise: Return PanDDA run, DMSO background map: 1-BDC (reported value) for this compound: CN(C)C[C@@]1(O)CCCN(c2ncnc3[nH]ccc23)C1
Solution: 0.17

Exercise: Return PanDDA run, DMSO background map: 1-BDC (reported value) for this compound: O=C(O)C(F)(F)F.OCC1C2C=CC(C2)N1c1ncnc2[nH]ccc12 (stereo not shown)
Solution: 0.15

Exercise: Return PanDDA run, DMSO background map: 1-BDC (reported value) for this compound: CN1CCN(c2ncnc3[nH]ccc23)C(CO)C1 (stereo not shown)
Solution: 0.06

Exercise: Return PanDDA run, DMSO background map: 1-BDC (reported value) for this compound: CC(C)(C)C1CCC(CO)N(c2ncnc3[nH]ccc23)C1 (stereo not shown)
Solution: 0.08

Exercise: Return PanDDA run, DMSO background map: 1-BDC (reported value) for this compound: OCC1CC2(CCC2)CN1c1ncnc2[nH]ccc12 (stereo not shown)
Solution: 0.24

Exercise: Return PanDDA run, DMSO background map: 1-BDC (reported value) for this compound: OCC(Cc1cccs1)Nc1ncnc2[nH]ccc12 (stereo not shown)
Solution: 0.21

----------
assay: in vitro; details: human, Caco-2
Papp B→A at 1 h of 10 ×10⁻⁶ cm/s or higher: Satisfied. Under 10 ×10⁻⁶ cm/s: Not satisfied.

Exercise: Evaluate Cc1c[nH]c2ncnc(NCC3(O)CCCCC3)c12 : Papp B→A at 1 h at minimum 10 ×10⁻⁶ cm/s?
Solution: Satisfied

Exercise: Evaluate C[C@H]1CCCN(c2ncnc3[nH]ccc23)[C@H]1CO : Papp B→A at 1 h at minimum 10 ×10⁻⁶ cm/s?
Solution: Satisfied

Exercise: Evaluate CC(C)(O)[C@H]1CCCN1c1ncnc2[nH]ccc12 : Papp B→A at 1 h at minimum 10 ×10⁻⁶ cm/s?
Solution: Satisfied

Exercise: Evaluate O=C1CCCN1Nc1ncnc2[nH]c3cc(F)ccc3c12 [AVI-219, reference compound] : Papp B→A at 1 h at minimum 10 ×10⁻⁶ cm/s?
Solution: Satisfied

Exercise: Evaluate O=C(Nc1ccc(C(=O)N[C@H]2c3cccc(O)c3C[C@H]2C(=O)O)cc1)NC1CC1 [AVI-92, reference compound] : Papp B→A at 1 h at minimum 10 ×10⁻⁶ cm/s?
Solution: Not satisfied

Exercise: Evaluate CC(c1ccccc1)C(CO)Nc1ncnc2[nH]ccc12 (stereo not drawn) : Papp B→A at 1 h at minimum 10 ×10⁻⁶ cm/s?
Solution: Satisfied
